Cited source: patent US10907134B2

Test: Luminescence activity of KAZ mutants (pCold II, E. coli) in supernatant and precipitate of crude enzyme solution
Format: biochemical
Conditions: Table 3; pCold II, E. coli BL21; 5 μL precipitate; 0.5 μg coelenterazine; 60 seconds
Description: In order to express the KAZ mutants in E. coli, the recombinant plasmid prepared in EXAMPLE 3 was used. The E. coli BL21 strain (Novagen, Madison, Wis.) was used as a host cell. […] Then 20 μL each of the supernatant and precipitate were analyzed by SDS-PAGE to confirm the presence or absence of soluble and insoluble proteins. […] The luminescence activities of 5 μL each of the supernatant and precipitate obtained in EXAMPLE 14 were determined in the same manner as EXAMPLE 5. […]
RECORDED ENDPOINT: Relative Luminescence Activity (Imax) Precipitate

[
  {
    "MOLECULE": "KAZ-N166R: KAZ with single amino acid substitution N166R (protein) FTLADFVGDWQQTAGYNQDQVLEQGGLSSLFQALGVSVTPIQKVVLSGENGLKADIHVIIPYEGLSGFQMGLIEMIFKVVYPVDDHHFKIILHYGTLVIDGVTPNMIDYFGRPYPGIAVFDGKQITVTGTLWNGNKIYDERLINPDGSLLFRVTINGVTGWRLCERILA",
    "READOUT VALUE": 0.8
  },
  {
    "MOLECULE": "KAZ-Q18L: KAZ with glutamine at position 18 substituted by leucine (protein, listed as Oplophorus gracilirostris) FTLADFVGDWQQTAGYNLDQVLEQGGLSSLFQALGVSVTPIQKVVLSGENGLKADIHVIIPYEGLSGFQMGLIEMIFKVVYPVDDHHFKIILHYGTLVIDGVTPNMIDYFGRPYPGIAVFDGKQITVTGTLWNGNKIYDERLINPDGSLLFRVTINGVTGWRLCENILA",
    "READOUT VALUE": 0.2
  }
]
